Reference for the values: the kinase profiling compilation of Christmann-Franck et al. (2016)

Test system: DYRK2 (human) (UniProt Q92630)
Sequence (Q92630 whole entry, looked up): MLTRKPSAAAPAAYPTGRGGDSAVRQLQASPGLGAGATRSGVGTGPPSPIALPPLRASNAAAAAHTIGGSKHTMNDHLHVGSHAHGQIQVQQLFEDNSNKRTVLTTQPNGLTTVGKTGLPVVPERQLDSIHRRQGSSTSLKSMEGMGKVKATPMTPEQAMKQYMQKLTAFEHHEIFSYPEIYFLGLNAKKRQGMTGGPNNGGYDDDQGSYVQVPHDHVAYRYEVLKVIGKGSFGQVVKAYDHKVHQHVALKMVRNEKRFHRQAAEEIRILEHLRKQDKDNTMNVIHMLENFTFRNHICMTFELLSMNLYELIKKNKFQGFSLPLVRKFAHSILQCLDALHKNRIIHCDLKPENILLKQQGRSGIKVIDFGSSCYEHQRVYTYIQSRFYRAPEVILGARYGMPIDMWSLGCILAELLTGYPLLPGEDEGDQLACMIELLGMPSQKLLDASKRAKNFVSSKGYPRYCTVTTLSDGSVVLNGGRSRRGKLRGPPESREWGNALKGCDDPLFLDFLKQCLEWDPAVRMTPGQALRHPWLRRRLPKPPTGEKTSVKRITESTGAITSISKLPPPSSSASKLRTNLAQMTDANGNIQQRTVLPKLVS
Method notes: radiometric filter-binding kinase assay
Stated conditions: compound 1.0 µM; ATP 50 µM
Readout: residual activity (%)
Give bare numbers, in %.

- Compound: "COc1ccc2c(c1)=NC1=C(C)NCCC=21"
  Readout: "residual activity"
  Val: 73
- Compound: "COC[C@H]1OC(=O)c2coc3c2[C@@]1(C)C1=C(C3=O)[C@@H]2CCC(=O)[C@@]2(C)C[C@H]1OC(C)=O"
  Readout: "residual activity"
  Val: 98
- Compound: "O=C1c2ccccc2-c2n[nH]c3cccc1c23"
  Readout: "residual activity"
  Val: 19
- Compound: "CO[C@H]1CC2CC[C@@H](C)[C@@](O)(O2)C(=O)C(=O)N2CCCC[C@H]2C(=O)OC([C@H](C)C[C@@H]2CC[C@@H](O)[C@H](OC)C2)CC(=O)[C@H](C)/C=C(\\C)[C@@H](O)[C@@H](OC)C(=O)[C@H](C)C[C@H](C)/C=C/C=C/C=C/1C (stereo partly specified)"
  Readout: "residual activity"
  Val: 84
- Compound: "O=S(=O)(NCCNC/C=C/c1ccc(Br)cc1)c1cccc2cnccc12"
  Readout: "residual activity"
  Val: 105

Quick note, residual activity for CC(C)(N)c1ccc(-c2nc3ccccc3nc2-c2ccccc2)cc1 landed at 113

----------
Test system: IKBKB (human) (UniProt O14920)
Sequence (O14920 whole entry, looked up): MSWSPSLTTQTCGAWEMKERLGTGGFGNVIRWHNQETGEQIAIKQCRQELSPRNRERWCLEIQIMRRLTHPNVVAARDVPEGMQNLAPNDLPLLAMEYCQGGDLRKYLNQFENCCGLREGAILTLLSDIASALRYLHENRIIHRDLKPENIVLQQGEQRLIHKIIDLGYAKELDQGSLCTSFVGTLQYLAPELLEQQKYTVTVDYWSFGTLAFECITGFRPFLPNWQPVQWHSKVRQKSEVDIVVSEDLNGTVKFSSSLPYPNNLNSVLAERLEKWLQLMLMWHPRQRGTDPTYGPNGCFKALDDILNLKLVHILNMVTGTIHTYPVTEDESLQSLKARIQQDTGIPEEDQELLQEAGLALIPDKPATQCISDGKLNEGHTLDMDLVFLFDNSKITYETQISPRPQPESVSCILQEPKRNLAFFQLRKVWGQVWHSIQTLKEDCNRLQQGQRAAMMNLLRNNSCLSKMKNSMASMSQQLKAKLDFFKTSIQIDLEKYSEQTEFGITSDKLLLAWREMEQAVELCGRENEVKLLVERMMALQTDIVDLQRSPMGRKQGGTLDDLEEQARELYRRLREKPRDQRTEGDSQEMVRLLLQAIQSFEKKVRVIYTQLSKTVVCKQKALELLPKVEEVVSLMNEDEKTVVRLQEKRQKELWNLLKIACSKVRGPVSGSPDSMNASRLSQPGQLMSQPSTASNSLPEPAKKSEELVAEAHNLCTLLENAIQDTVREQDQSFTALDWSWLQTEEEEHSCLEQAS
Method notes: radiometric filter-binding kinase assay
Stated conditions: compound 1.0 µM; ATP 5 µM
Give measured residual activity for each item. Keep answers brief.
Numbers only, in %.

- Molecule: "O=C1c2ccccc2-c2n[nH]c3cccc1c23"
  Val: 49
- Molecule: "COC[C@H]1OC(=O)c2coc3c2[C@@]1(C)C1=C(C3=O)[C@@H]2CCC(=O)[C@@]2(C)C[C@H]1OC(C)=O"
  Val: 96
- Molecule: "O=S(=O)(NCCNC/C=C/c1ccc(Br)cc1)c1cccc2cnccc12"
  Val: 98
- Molecule: "COc1ccc2c(c1)=NC1=C(C)NCCC=21"
  Val: 94

Pending molecule:
Notebook: CO[C@H]1CC2CC[C@@H](C)[C@@](O)(O2)C(=O)C(=O)N2CCCC[C@H]2C(=O)OC([C@H](C)C[C@@H]2CC[C@@H](O)[C@H](OC)C2)CC(=O)[C@H](C)/C=C(\C)[C@@H](O)[C@@H](OC)C(=O)[C@H](C)C[C@H](C)/C=C/C=C/C=C/1C (stereo not given in full) , residual activity read as 82

----------
Test system: MARK3 (human) (UniProt P27448)
Sequence (P27448 whole entry, looked up): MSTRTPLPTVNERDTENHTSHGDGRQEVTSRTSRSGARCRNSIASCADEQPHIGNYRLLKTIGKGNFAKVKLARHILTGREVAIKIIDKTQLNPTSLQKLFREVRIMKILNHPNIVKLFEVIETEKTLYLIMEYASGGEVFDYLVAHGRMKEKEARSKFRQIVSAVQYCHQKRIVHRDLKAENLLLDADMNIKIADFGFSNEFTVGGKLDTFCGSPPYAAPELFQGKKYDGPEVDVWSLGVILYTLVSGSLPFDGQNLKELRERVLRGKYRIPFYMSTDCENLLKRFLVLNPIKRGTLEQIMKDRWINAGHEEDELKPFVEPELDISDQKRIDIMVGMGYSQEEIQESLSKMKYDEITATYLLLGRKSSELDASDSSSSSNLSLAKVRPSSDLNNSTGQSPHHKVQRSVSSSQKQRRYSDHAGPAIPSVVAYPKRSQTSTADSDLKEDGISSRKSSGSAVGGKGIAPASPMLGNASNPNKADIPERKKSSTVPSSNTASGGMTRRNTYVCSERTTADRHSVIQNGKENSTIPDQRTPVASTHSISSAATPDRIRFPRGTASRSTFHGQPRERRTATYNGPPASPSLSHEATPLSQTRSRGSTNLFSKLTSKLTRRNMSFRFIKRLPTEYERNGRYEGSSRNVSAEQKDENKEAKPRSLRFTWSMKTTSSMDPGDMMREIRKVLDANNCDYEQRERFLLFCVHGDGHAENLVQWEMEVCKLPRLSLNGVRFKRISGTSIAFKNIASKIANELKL
Method notes: radiometric filter-binding kinase assay
Stated conditions: compound 1.0 µM; ATP 5 µM
Readout: residual activity
I'd appreciate it if you wrote the number followed by its unit.

Some molecules with recorded residual activity:
- Molecule: "COC[C@H]1OC(=O)c2coc3c2[C@@]1(C)C1=C(C3=O)[C@@H]2CCC(=O)[C@@]2(C)C[C@H]1OC(C)=O"
  Test system: "MARK3 (human) (UniProt P27448)"
  Readout: "residual activity"
  Val: "85%"
- Molecule: "O=C1c2ccccc2-c2n[nH]c3cccc1c23"
  Test system: "MARK3 (human) (UniProt P27448)"
  Readout: "residual activity"
  Val: "49%"
- Molecule: "COc1ccc2c(c1)=NC1=C(C)NCCC=21"
  Test system: "MARK3 (human) (UniProt P27448)"
  Readout: "residual activity"
  Val: "110%"

Turning now to a further molecule:
Tested system MARK3 (human) (UniProt P27448); residual activity recorded for CO[C@H]1CC2CC[C@@H](C)[C@@](O)(O2)C(=O)C(=O)N2CCCC[C@H]2C(=O)OC([C@H](C)C[C@@H]2CC[C@@H](O)[C@H](OC)C2)CC(=O)[C@H](C)/C=C(\C)[C@@H](O)[C@@H](OC)C(=O)[C@H](C)C[C@H](C)/C=C/C=C/C=C/1C (some centres undefined) was 88%
